Provenance of the data: paper PMC12203311

Reported values: GI50 for HL-60 (TB), one per item.
Response body: numeric value in µM, unit text excluded.

Query block: Query: GI50; subject: Cn1cccc1/C=N/NC(=O)c1[nH]c2ccc(Br)cc2c1-c1ccccc1
Result block: 0.317

Query block: Query: GI50; subject: CCc1cc[nH]c1/C=N/NC(=O)c1[nH]c2ccc(Br)cc2c1-c1ccccc1
Result block: 2.03

Query block: Query: GI50; subject: O=C(N/N=C/c1cc[nH]c1)c1[nH]c2ccc(Br)cc2c1-c1ccccc1
Result block: 0.598

Query block: Query: GI50; subject: CCc1ccc(/C=N/NC(=O)c2[nH]c3ccc(Br)cc3c2-c2ccccc2)[nH]1
Result block: 0.235

Query block: Query: GI50; subject: O=C(N/N=C/c1cc(Cl)c[nH]1)c1[nH]c2ccc(Br)cc2c1-c1ccccc1
Result block: 0.185

Query block: Query: GI50; subject: O=C(N/N=C/c1[nH]ccc1Cl)c1[nH]c2ccc(Br)cc2c1-c1ccccc1
Result block: 0.891

Query block: Query: GI50; subject: CCOC(=O)c1cc(/C=N/NC(=O)c2[nH]c3ccc(Br)cc3c2-c2ccccc2)c[nH]1
Result block: 4.68

Query block: Query: GI50; subject: O=C(N/N=C/c1ccc[nH]1)c1[nH]c2ccc(Br)cc2c1-c1ccccc1
Result block: 0.242
